endpoint.name: intrinsic clearance, rat liver microsomes (mL/min/kg)

Example entries begin here.
{"columns": ["compound", "data.value"],
 "data": [
  ["O=C(CCCc1ccc(F)cc1)N1CCN(c2ccccc2)C(=O)C1", 176],
  ["O=c1cc2c(n[nH]1)-c1cnc(N3CCCCC3)nc1CC2", 110],
  ["Clc1cnc(NCC2(CN3CCCC3)CC2)nc1", 134]
]}

P. COc1ccnc(N2CCCN(Cc3ccccc3C)CC2)n1
Q. CC(C)NC(=O)c1cc(-c2ccccc2)n(-c2ccccn2)n1
Of the two listed items, P and Q , which carries the larger intrinsic clearance, rat liver microsomes figure? Kindly give the label for the entry you pick.
P

I. O=C(CCCc1nnc(-c2ccccc2)o1)Nc1cccc2ccccc12
II. Cc1ncccc1CNc1ccc(CC#N)cc1
III. C=CCn1cc(CNCc2csc3ccc(Cl)cc23)c(C)n1
IV. Cc1ccc(-n2c(S)nnc2-c2ccc(O)cc2)c(C)c1
Please give the order of these compounds when sorted by intrinsic clearance, rat liver microsomes, largest value leading. Put the labels in the requested order and list them out.
III, I, II, IV
(III: 3200 mL/min/kg, I: 1150 mL/min/kg, II: 364 mL/min/kg, IV: 129 mL/min/kg)

P. Cn1c(=O)n(Cc2cccc(OC(F)F)c2)c2cnccc21
Q. Cc1cc(Cn2cnc(C#N)c2C#N)c2ccccc2n1
R. CN1C(=O)N[C@H](Cc2c[nH]c3c(Cl)cccc23)C1=O
Please give the order of these compounds when sorted by intrinsic clearance, rat liver microsomes, largest value leading. Put the labels in the requested order and list them out.
P, R, Q
(P: 209 mL/min/kg, R: 77.1 mL/min/kg, Q: 36.7 mL/min/kg)

I. CN1CCN(S(=O)(=O)c2ccc(C(F)(F)F)nc2)C(C)(C)C1
II. CN(c1ncc(Br)cn1)C1CCS(=O)CC1 (centres undefined)
Lowest intrinsic clearance, rat liver microsomes? choose I or II Kindly give the label for the entry you pick.
II
(II: 25.7 mL/min/kg, I: 661 mL/min/kg)

These entries and their values trace back to the Biogen ADME set (Fang et al. 2023).
